Test system: chimeric Caspase-9 polypeptide
Sequence (as listed by the source, change not shown): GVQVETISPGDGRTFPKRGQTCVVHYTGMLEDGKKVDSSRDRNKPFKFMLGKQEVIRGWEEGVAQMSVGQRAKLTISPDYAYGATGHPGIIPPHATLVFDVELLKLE
Assay: Caspase mutant classes and basal activity (Table 3)
Assay type: cell-based, human
Settings: class heading of Table 3
metric_name: Basal Activity

Guide cases for Basal Activity, answers given:
[
  {
    "molecule": "D330S (protein) GFGDVGALESLRGNADLAYILSMEPCGHCLIINNVNFCRESGLRTRTGSNIDCEKLRRRFSSLHFMVEVKGDLTAKKMVLALLELAQQDHGALDCCVVVILSHGCQASHLQFPGAVYGTDGCPVSVEKIVNIFNGTSCPSLGGKPKLFFIQACGGEQKDHGFEVASTSPEDESPGSNPEPDATPFQEGLRTFDQLSAISSLPTPSDIFVSYSTFPGFVSWRDPKSGSWYVETLDDIFEQWAHSEDLQSLLLRVANAVSVKGIYKQMPGCFNFLRKKLFFKTS",
    "Basal Activity": "Decreased"
  },
  {
    "molecule": "N405F (protein) GFGDVGALESLRGNADLAYILSMEPCGHCLIINNVNFCRESGLRTRTGSNIDCEKLRRRFSSLHFMVEVKGDLTAKKMVLALLELAQQDHGALDCCVVVILSHGCQASHLQFPGAVYGTDGCPVSVEKIVNIFNGTSCPSLGGKPKLFFIQACGGEQKDHGFEVASTSPEDESPGSNPEPDATPFQEGLRTFDQLDAISSLPTPSDIFVSYSTFPGFVSWRDPKSGSWYVETLDDIFEQWAHSEDLQSLLLRVANAVSVKGIYKQMPGCFFFLRKKLFFKTS",
    "Basal Activity": "Decreased"
  },
  {
    "molecule": "N405T (protein) GFGDVGALESLRGNADLAYILSMEPCGHCLIINNVNFCRESGLRTRTGSNIDCEKLRRRFSSLHFMVEVKGDLTAKKMVLALLELAQQDHGALDCCVVVILSHGCQASHLQFPGAVYGTDGCPVSVEKIVNIFNGTSCPSLGGKPKLFFIQACGGEQKDHGFEVASTSPEDESPGSNPEPDATPFQEGLRTFDQLDAISSLPTPSDIFVSYSTFPGFVSWRDPKSGSWYVETLDDIFEQWAHSEDLQSLLLRVANAVSVKGIYKQMPGCFTFLRKKLFFKTS",
    "Basal Activity": "Increased"
  },
  {
    "molecule": "A331K (protein) GFGDVGALESLRGNADLAYILSMEPCGHCLIINNVNFCRESGLRTRTGSNIDCEKLRRRFSSLHFMVEVKGDLTAKKMVLALLELAQQDHGALDCCVVVILSHGCQASHLQFPGAVYGTDGCPVSVEKIVNIFNGTSCPSLGGKPKLFFIQACGGEQKDHGFEVASTSPEDESPGSNPEPDATPFQEGLRTFDQLDKISSLPTPSDIFVSYSTFPGFVSWRDPKSGSWYVETLDDIFEQWAHSEDLQSLLLRVANAVSVKGIYKQMPGCFNFLRKKLFFKTS",
    "Basal Activity": "Increased"
  },
  {
    "molecule": "S196A (protein) GFGDVGALESLRGNADLAYILSMEPCGHCLIINNVNFCRESGLRTRTGSNIDCEKLRRRFSALHFMVEVKGDLTAKKMVLALLELAQQDHGALDCCVVVILSHGCQASHLQFPGAVYGTDGCPVSVEKIVNIFNGTSCPSLGGKPKLFFIQACGGEQKDHGFEVASTSPEDESPGSNPEPDATPFQEGLRTFDQLDAISSLPTPSDIFVSYSTFPGFVSWRDPKSGSWYVETLDDIFEQWAHSEDLQSLLLRVANAVSVKGIYKQMPGCFNFLRKKLFFKTS",
    "Basal Activity": "Decreased"
  }
]

Below are some molecules; for each one, tell me its Basal Activity.
1. T317A (protein) GFGDVGALESLRGNADLAYILSMEPCGHCLIINNVNFCRESGLRTRTGSNIDCEKLRRRFSSLHFMVEVKGDLTAKKMVLALLELAQQDHGALDCCVVVILSHGCQASHLQFPGAVYGTDGCPVSVEKIVNIFNGTSCPSLGGKPKLFFIQACGGEQKDHGFEVASTSPEDESPGSNPEPDAAPFQEGLRTFDQLDAISSLPTPSDIFVSYSTFPGFVSWRDPKSGSWYVETLDDIFEQWAHSEDLQSLLLRVANAVSVKGIYKQMPGCFNFLRKKLFFKTS
2. N405Q-S144A (protein) GFGDVGALEALRGNADLAYILSMEPCGHCLIINNVNFCRESGLRTRTGSNIDCEKLRRRFSSLHFMVEVKGDLTAKKMVLALLELAQQDHGALDCCVVVILSHGCQASHLQFPGAVYGTDGCPVSVEKIVNIFNGTSCPSLGGKPKLFFIQACGGEQKDHGFEVASTSPEDESPGSNPEPDATPFQEGLRTFDQLDAISSLPTPSDIFVSYSTFPGFVSWRDPKSGSWYVETLDDIFEQWAHSEDLQSLLLRVANAVSVKGIYKQMPGCFQFLRKKLFFKTS
3. D330A-S183A (protein) GFGDVGALESLRGNADLAYILSMEPCGHCLIINNVNFCRESGLRTRTGANIDCEKLRRRFSSLHFMVEVKGDLTAKKMVLALLELAQQDHGALDCCVVVILSHGCQASHLQFPGAVYGTDGCPVSVEKIVNIFNGTSCPSLGGKPKLFFIQACGGEQKDHGFEVASTSPEDESPGSNPEPDATPFQEGLRTFDQLAAISSLPTPSDIFVSYSTFPGFVSWRDPKSGSWYVETLDDIFEQWAHSEDLQSLLLRVANAVSVKGIYKQMPGCFNFLRKKLFFKTS
4. D330E (protein) GFGDVGALESLRGNADLAYILSMEPCGHCLIINNVNFCRESGLRTRTGSNIDCEKLRRRFSSLHFMVEVKGDLTAKKMVLALLELAQQDHGALDCCVVVILSHGCQASHLQFPGAVYGTDGCPVSVEKIVNIFNGTSCPSLGGKPKLFFIQACGGEQKDHGFEVASTSPEDESPGSNPEPDATPFQEGLRTFDQLEAISSLPTPSDIFVSYSTFPGFVSWRDPKSGSWYVETLDDIFEQWAHSEDLQSLLLRVANAVSVKGIYKQMPGCFNFLRKKLFFKTS

Ans:
["Decreased", "Decreased", "Decreased", "Decreased"]
